# Tested on: P12-Ichikawa
# PROCEDURE SUMMARY: cell viability relative to DMSO control; higher = less cytotoxic
# ASSAY CONDITIONS: RPMI 5 mM glucose + 10% dialyzed FBS; 48 h; 0.00234 µM
READOUT NAME: cell viability (%)
Supply the numeric figure in %, leaving out any unit text.

Field: example entries. Status: answers known.
MOLECULE	READING
CCOC(=O)[C@H]1O[C@@H]1C(=O)N[C@@H](CC(C)C)C(=O)NCCC(C)C	119
O=C(O)Cc1cccc(OCCCN(Cc2cccc(C(F)(F)F)c2Cl)CC(c2ccccc2)c2ccccc2)c1	119
Cn1cnc([N+](=O)[O-])c1Sc1ncnc2nc[nH]c12	95.3
Cc1cccc(-c2[nH]c(C(C)(C)C)nc2-c2ccc3c(c2)OCO3)n1	112

Please give measured cell viability of the following entry: `C[N]1N=CC=C1C/2=C(\C)N(C(=O)C(=C2)/C(=O)NCC3=NC=C(C=C3)[S+](C)([O-])=O)C4=CC=CC(=C4)C(F)(F)F`
105

Please give measured cell viability of the following entry: `Cc1ccc(-c2cc(C(F)(F)F)nn2-c2ccc([S+](N)(=O)[O-])cc2)cc1`
119

Please give measured cell viability of the following entry: `O=[S+]([O-])(NCCNC/C=C/c1ccc(Br)cc1)c1cccc2cnccc12`
95.6

Please give measured cell viability of the following entry: `COc1cc2ncnc(Nc3cccc(Cl)c3)c2cc1OC`
102

Please give measured cell viability of the following entry: CCOCC(O)COc1ccc(NC(=O)CC[S+](C)C)cc1 (stereo not given)
74.7

Please give measured cell viability of the following entry: `COc1ccc([S+](=O)([O-])Nc2cccnc2Nc2ccc(O)cc2)cc1`
128

Please give measured cell viability of the following entry: `CC(C)(C)OC(=O)Nc1ccc(-c2cc(C(=O)NCCCCCCC(=O)NO)no2)cc1`
90.5

Please give measured cell viability of the following entry: `C[N]1C=C(C=N1)C2=CC=C3N=CC\4=C(N(C(=O)\C=C4)C5=CC6=C(CCN6C(=O)C=C)C=C5)C3=C2`
128

Please give measured cell viability of the following entry: `C[C@H](NCc1ccc(OCc2cccc(F)c2)cc1)C(N)=O`
118

Please give measured cell viability of the following entry: CN(C(Cc1ccc(O[S+](=O)([O-])c2cccc3cnccc23)cc1)C(=O)N1CCN(c2ccccc2)CC1)[S+](=O)([O-])c1cccc2cnccc12 (stereo not given)
108

Please give measured cell viability of the following entry: `O=C1N\C=N/C2=C1C=N[NH]2`
86.2

Please give measured cell viability of the following entry: `CC(C)n1cnc2c(NCCc3ccc(O)cc3)nc(-c3csc4ccccc34)nc21`
109

Please give measured cell viability of the following entry: `CCOC(=O)N[C@@H]1CC[C@@H]2[C@@H](C1)C[C@H]1C(=O)O[C@H](C)[C@H]1[C@H]2/C=C/c1ccc(-c2cccc(F)c2)cn1`
116
